# Test system: SRS-A (slow reacting substance of anaphylaxis) contraction of ileum
# Assay Notes: Anti-SRS-A action using ileus of guinea pigs
# Assay type: cell-based, Hartley strain male guinea pigs
# Cond: Cavia porcellus, 5 min, 1/1000 mM; guinea pig ileum; SRS-A 20 units; compound five minutes before; read-out: 1/1000 mM SRS-A Inhibition Ratio %
Hi, to clarify the labels: True covers inhibition at 1 µM from 30% upward, False covers anything below 30%.

Illustrative cases are given below, each with its answer.
• O=C(O)c1cccc2c(=O)cc(-c3ccccc3Cl)[nH]c12 = False
• O=C(OCCO)c1cccc2c(=O)cc(-c3ccccc3F)[nH]c12 = False
• CCOC(=O)c1cccc2c(=O)cc(-c3ccc(C)c(C)c3)[nH]c12 = False
• Cc1ccc(-c2cc(=O)c3cc(C(=O)O)ccc3[nH]2)cc1 = False
• O=C(O)c1ccc2[nH]c(-c3cccs3)cc(=O)c2c1 = False

Item "O=C(O)c1ccc2[nH]c(-c3ccccn3)cc(=O)c2c1" with inhibition at 1 µM of 30% or above?
False

Item "COC(=O)c1ccc2[nH]c(-c3ccccc3F)cc(=O)c2c1" with inhibition at 1 µM of 30% or above?
True

Item "COC(=O)c1ccc2[nH]c(-c3ccccc3Br)cc(=O)c2c1" with inhibition at 1 µM of 30% or above?
True

###

Provide the reported inhibition at 1 µM of each item.
# System: SRS-A (slow reacting substance of anaphylaxis) contraction of ileum
# Assay Notes: Anti-SRS-A action using ileus of guinea pigs
# Format: cell-based, Hartley strain male guinea pigs
# Cond: Cavia porcellus, 5 min, 1/1000 mM; guinea pig ileum; SRS-A 20 units; compound five minutes before; read-out: 1/1000 mM SRS-A Inhibition Ratio %
# Source text: The compounds of the present invention have been evaluated for their anti-allergenic action by passive cutaneous anaphylatic assay (PCA) in rats and by measuring the anti-SRS-A action using ileus of guinea pigs. Anti-SRS-A action (An anti-acton against slow reacting substance of anaphylaxis). […]
Structures can show the parent of a compound that is named as a salt.
Numbers only, in %.

Use these answered entries as a reference point.
• CCOC(=O)COC(=O)c1cccc2c(=O)cc(-c3ccccc3Cl)[nH]c12 [Example 123] = 17.4
• Cc1ccc(-c2cc(=O)c3cccc(C(=O)OCCO)c3[nH]2)cc1 [Example 135] = 27.3
• O=C(OCCc1ccccc1)c1ccc2c(c1)C(=O)CC(c1ccccc1)=N2 [Example 6] = 22.8
• COC(=O)c1ccc2[nH]c(-c3ccc(OC)cc3)cc(=O)c2c1 [Example 62] = 27.4
• CC(O)COC(=O)c1cccc2c(=O)cc(-c3ccccc3Cl)[nH]c12 (stereo not drawn) [Example 125] = 15.6

For every listed record, write down its inhibition at 1 µM.
1. CCCCCCn1c(-c2ccccc2)cc(=O)c2cc(C(=O)OC)ccc21 [Example 19]
2. CCCn1c(-c2ccccc2)cc(=O)c2cc(C(=O)OC)ccc21 [Example 15]
3. CCn1c(-c2ccccc2)cc(=O)c2cc(C(=O)OC)ccc21 [Example 13]
4. COC(=O)c1ccc2[nH]c(-c3ccc(Cl)c(Cl)c3)cc(=O)c2c1 [Example 37]
5. O=C(OCCO)c1cccc2c(=O)cc(-c3cccc(Cl)c3)[nH]c12 [Example 132]
6. COC(=O)c1ccc2[nH]c(-c3cccs3)cc(=O)c2c1 [Example 78]
7. O=C(O)c1ccc(-c2cc(=O)c3cc(C(=O)O)ccc3[nH]2)cc1 [Example 69]
8. CC(C)c1ccc(-c2cc(=O)c3cc(C(=O)O)ccc3[nH]2)cc1 [Example 49]

1: 27.5; 2: 65.3; 3: 25.4; 4: 24.3; 5: 55.5; 6: 23.3; 7: 27.9; 8: 18.8

For every listed record, write down its inhibition at 1 µM.
1. COc1ccc(-c2cc(=O)c3cccc(C(=O)O)c3[nH]2)cc1OC [Example 99]
2. O=C(O)c1ccc2c(c1)C(=O)CC(c1ccccc1)=N2 [Example 2, 2-Phenyl-4-quinolone-6-carboxylic acid]
3. O=C(O)c1ccc2[nH]c(-c3ccco3)cc(=O)c2c1 [Example 77]
4. O=C(O)c1ccc2[nH]c(-c3ccccc3)cc(=O)c2c1 [Example 3]
5. CCOc1ccccc1-c1cc(=O)c2cc(C(=O)O)ccc2[nH]1 [Example 59]
6. COC(=O)c1ccc2[nH]c(-c3ccccc3I)cc(=O)c2c1 [Example 28]
7. O=C(O)c1ccc2[nH]c(-c3ccc(Cl)c(Cl)c3)cc(=O)c2c1 [Example 38]
8. CCCCCCOC(=O)c1cccc2c(=O)cc(-c3ccccc3Cl)[nH]c12 [Example 113]

1. 21.7
2. 23.9
3. 21
4. 85
5. 24.6
6. 55.6
7. 20.5
8. 20.5

For every listed record, write down its inhibition at 1 µM.
1. COC(=O)c1ccc2[nH]c(-c3cccc(C(F)(F)F)c3)cc(=O)c2c1 [Example 52]
2. COC(=O)c1ccc2[nH]c(-c3ccccc3OC(C)C)cc(=O)c2c1 [Example 60]
3. CCCCCCn1c(-c2ccccc2)cc(=O)c2cc(C(=O)O)ccc21 [Example 20]
4. O=C(O)c1ccc2[nH]c(-c3ccccc3F)cc(=O)c2c1 [Example 27]

[21.3, 58.8, 83.9, 23.4]

For every listed record, write down its inhibition at 1 µM.
1. O=C(O)c1cccc2c(=O)cc(-c3ccccc3)[nH]c12 [Example 81]
2. COC(=O)c1ccc2[nH]c(-c3cc(Cl)ccc3Cl)cc(=O)c2c1 [Example 39]
3. CCOC(=O)c1cccc2c(O)cc(-c3ccccc3Cl)nc12 [Example 100, hydrochloride]
4. O=C(O)c1ccc2[nH]c(-c3cccc(Cl)c3)cc(=O)c2c1 [Example 30]
5. COC(=O)c1ccc2[nH]c(-c3cccnc3)cc(=O)c2c1 [Example 72]
6. O=C(OCC(O)CO)c1cccc2c(=O)cc(-c3ccccc3Cl)[nH]c12 (stereo not drawn) [Example 126]
7. CCOC(=O)c1cccc2c(=O)cc(-c3ccc(C)cc3C)[nH]c12 [Example 94]
8. CCOC(=O)c1cccc2c(=O)cc(-c3ccc(OC)c(OC)c3)[nH]c12 [Example 98]

1: 26.4; 2: 66; 3: 70.5; 4: 24.5; 5: 22; 6: 19.2; 7: 78.6; 8: 20.4
